target: Vitamin K-dependent protein C (Homo sapiens, UniProt P04070); assay: Binding affinity against serine protease Activated protein C
Sequence (P04070 43-197 limits assumed): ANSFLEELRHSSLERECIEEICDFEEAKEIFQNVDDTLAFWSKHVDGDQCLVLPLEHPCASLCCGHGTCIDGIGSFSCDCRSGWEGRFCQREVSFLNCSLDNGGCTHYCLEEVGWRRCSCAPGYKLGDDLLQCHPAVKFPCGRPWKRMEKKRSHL
Sequence (P04070 212-461 limits assumed): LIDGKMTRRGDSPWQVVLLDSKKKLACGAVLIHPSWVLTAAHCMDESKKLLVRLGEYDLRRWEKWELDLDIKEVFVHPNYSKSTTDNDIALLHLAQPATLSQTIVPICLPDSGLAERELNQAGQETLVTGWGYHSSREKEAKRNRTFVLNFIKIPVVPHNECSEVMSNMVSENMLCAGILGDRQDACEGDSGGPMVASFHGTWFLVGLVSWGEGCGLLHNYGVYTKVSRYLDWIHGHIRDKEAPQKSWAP
experimental-readout: Ki

The molecule identified as Cc1ccc(NS(=O)(=O)Cc2ccccc2)c(=O)n1CC(=O)NCC1CCN(C(=N)N)CC1 registered its Ki at > 20 µM

----------
biological target: Tissue-type plasminogen activator (Homo sapiens, UniProt P00750)
Sequence (P00750 whole entry): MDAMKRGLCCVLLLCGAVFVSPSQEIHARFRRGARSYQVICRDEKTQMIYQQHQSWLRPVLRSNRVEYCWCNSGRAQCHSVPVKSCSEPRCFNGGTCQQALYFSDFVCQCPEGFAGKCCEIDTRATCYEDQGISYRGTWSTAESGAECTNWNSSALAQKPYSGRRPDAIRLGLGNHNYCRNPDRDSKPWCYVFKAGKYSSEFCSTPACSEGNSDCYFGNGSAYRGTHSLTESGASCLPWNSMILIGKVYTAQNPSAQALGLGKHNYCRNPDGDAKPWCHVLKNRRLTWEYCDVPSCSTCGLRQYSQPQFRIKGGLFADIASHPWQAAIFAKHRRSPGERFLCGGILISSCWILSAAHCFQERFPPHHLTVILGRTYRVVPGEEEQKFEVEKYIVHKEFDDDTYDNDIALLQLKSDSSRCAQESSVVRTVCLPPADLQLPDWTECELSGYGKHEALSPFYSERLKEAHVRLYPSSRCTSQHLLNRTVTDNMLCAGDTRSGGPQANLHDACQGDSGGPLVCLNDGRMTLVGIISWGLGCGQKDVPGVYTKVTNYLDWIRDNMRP
experimental-readout: Ki

Data point: Cc1ccc(NS(=O)(=O)Cc2ccccc2)c(=O)n1CC(=O)NCC1CCN(C(=N)N)CC1 ; Ki = > 20 µM

----------
target: Chymotrypsinogen A (Bos taurus, UniProt P00766); experiment: Binding affinity against serine protease […]
pKi: −log10 of the molar value.
experimental-readout: pKi

Chymotrypsinogen A (Bos taurus, UniProt P00766) data for Cc1ccc(NS(=O)(=O)Cc2ccccc2)c(=O)n1CC(=O)NCC1CCN(C(=N)N)CC1 ; its pKi: < 4.70
